These data points were gathered from patent US5196427A.

Biological target: Brain CCK receptor (Mus musculus, UniProt P56481)
Construct: from tissue; host or cells: forebrain membranes of male CF-1 mice
Test: Brain CCK receptor binding (mouse brain membranes, 125I-CCK-8 sulfate)
Settings: mouse brain membranes; Mean ± SEM, n = 3; values without SEM n = 1; read-out: Brain IC50
readout-label: IC50
# number then unit; no other words

Example results:
| molecule | IC50 |
| --- | --- |
| COc1ccc(-n2c(CCc3c[nH]c4ccc(Br)cc34)nc3ccccc3c2=O)cc1 [Example 52] | 31 nM |
| CSc1ccc(-n2c(CCc3c[nH]c4ccc(Br)cc34)nc3ccccc3c2=O)cc1 [Example 60] | 37 nM |
| CCc1cccc(-n2c(CCc3c[nH]c4ccc(OC)cc34)nc3ccccc3c2=O)c1 [Example 31] | 22 nM |

Moving on to the next molecule.
[in] // IC50 lookup, key: O=c1c2ccccc2nc(CCc2c[nH]c3ccccc23)n1-c1ccc2c(c1)OCO2 [Example 42]
[out] 190 nM

###

Biological target: Brain CCK receptor (Mus musculus, UniProt P56481)
Construct: from tissue; host or cells: forebrain membranes of male CF-1 mice
Sequence (P56481 1-453): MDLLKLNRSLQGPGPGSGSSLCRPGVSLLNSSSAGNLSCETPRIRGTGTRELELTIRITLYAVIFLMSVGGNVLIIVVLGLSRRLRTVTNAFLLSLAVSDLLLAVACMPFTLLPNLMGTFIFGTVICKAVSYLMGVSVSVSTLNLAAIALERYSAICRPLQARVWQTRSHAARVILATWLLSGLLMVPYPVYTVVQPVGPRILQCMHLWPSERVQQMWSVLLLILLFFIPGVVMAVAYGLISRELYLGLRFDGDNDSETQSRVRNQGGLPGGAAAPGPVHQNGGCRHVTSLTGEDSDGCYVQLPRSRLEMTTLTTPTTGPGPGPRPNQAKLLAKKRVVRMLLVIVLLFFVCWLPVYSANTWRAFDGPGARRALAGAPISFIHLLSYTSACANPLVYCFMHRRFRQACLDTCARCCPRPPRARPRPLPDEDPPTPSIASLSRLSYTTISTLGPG
Experiment: Brain CCK receptor binding (mouse brain membranes, 125I-CCK-8 sulfate)
Conditions: mouse brain membranes; Mean ± SEM, n = 3; values without SEM n = 1; read-out: Brain IC50
readout-label: log10 of IC50 (log10 of the value in µM)
Quick note: numbers are log10 of IC50, with µM as the unit.

[in] Query (compound): CCc1cccc(-n2c(CCc3c[nH]c4ccc(Br)cc34)nc3ccccc3c2=O)c1 [Example 29] ; field requested: log10 of IC50
[out] -1.34

[in] Another compound: COc1cc(OC)cc(-n2c(CCc3c[nH]c4ccccc34)nc3ccccc3c2=O)c1 [Example 41]
[out] 0.26

[in] Here is the next compound: CCCCOc1ccc(-n2c(CCc3c[nH]c4ccc(Br)cc34)nc3ccccc3c2=O)cc1 [Example 56]
[out] 0.04

###

Target: Brain CCK receptor (Mus musculus, UniProt P56481)
Construct: from tissue; host or cells: forebrain membranes of male CF-1 mice
Sequence (P56481 1-453): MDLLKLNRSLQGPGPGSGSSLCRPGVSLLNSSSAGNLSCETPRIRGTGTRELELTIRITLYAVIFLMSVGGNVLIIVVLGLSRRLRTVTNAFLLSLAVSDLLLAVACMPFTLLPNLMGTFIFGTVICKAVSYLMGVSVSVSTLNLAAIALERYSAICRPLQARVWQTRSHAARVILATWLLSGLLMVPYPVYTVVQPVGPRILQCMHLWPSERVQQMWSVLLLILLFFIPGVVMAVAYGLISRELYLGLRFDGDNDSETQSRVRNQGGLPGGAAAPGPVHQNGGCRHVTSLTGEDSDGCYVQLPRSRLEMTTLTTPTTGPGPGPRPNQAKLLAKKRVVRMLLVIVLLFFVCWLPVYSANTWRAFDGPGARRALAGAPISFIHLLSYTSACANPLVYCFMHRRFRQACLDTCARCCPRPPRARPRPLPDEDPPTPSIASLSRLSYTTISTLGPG
Experiment: Brain CCK receptor binding (mouse brain membranes, 125I-CCK-8 sulfate)
Conditions: mouse brain membranes; Mean ± SEM, n = 3; values without SEM n = 1; read-out: Brain IC50
pIC50: −log10 of the molar value.
Respond with T for pIC50 values of 7 and above, F for values below.

| smiles-notation | discrete-label |
| --- | --- |
| CCOc1cccc(-n2c(CCc3c[nH]c4ccc(OC)cc34)nc3ccccc3c2=O)c1 | T |
| COc1ccc2[nH]cc(CCc3nc4ccccc4c(=O)n3-c3cccc(SC)c3)c2c1 | T |
| O=c1c2ccccc2nc(CCc2c[nH]c3ccc(Cl)cc23)n1-c1cccc(Br)c1 | F |
| O=c1c2ccccc2nc(CCc2c[nH]c3ccccc23)n1-c1cccc(Cl)c1 | F |

For the next question, use this compound.
[in] Please check the record O=c1c2ccccc2nc(CCc2c[nH]c3cc(Cl)ccc23)n1-c1ccccc1 and state if its pIC50 is at or above 7.
[out] F
